Target: T1, human MAdCAM expressed on cells (human, UniProt Q13477 19-382)
T1 construct: whole, on cells; also called MADCAM1
T1 sequence (looked up): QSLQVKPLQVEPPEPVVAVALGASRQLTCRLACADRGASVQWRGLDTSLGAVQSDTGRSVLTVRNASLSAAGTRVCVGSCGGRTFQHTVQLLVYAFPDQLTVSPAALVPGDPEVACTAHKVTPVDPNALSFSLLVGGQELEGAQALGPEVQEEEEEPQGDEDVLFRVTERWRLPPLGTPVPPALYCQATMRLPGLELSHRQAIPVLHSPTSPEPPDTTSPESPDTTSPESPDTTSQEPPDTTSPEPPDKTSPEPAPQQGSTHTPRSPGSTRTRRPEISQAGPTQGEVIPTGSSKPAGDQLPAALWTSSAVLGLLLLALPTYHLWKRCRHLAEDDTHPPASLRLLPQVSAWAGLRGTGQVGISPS
Test: cell binding
measurementName: binding result

1) MAdCAM Antibody Table 1 Clone 54 (scFv) scFv: EVQLLESGGGLVQPGGSLRLSCAASGFTFGDYAMSWVRQAPGKGLEWVAVVSYDGTNKYYADSVKGRFTISRDNSKNTLYLQMNSLRAEDTAVYYCAKDICSSTSCYFDLWGRGTLVTVSSGGGGSGGGGSGGGGSGGGGSDIQMTQSPSSLSASVGDRVTITCRASQNINNYVNWYQQKPGKAPKLLIYDASNLETGVPSRFSGSGSGTDFTLTISSLQPEDFATYYCQQANSFPPTFGQGTRLEIK
binds
2) MAdCAM Antibody Table 1 Clone 39 (scFv) scFv: QVQLVQSGAEVKKPGASVKVSCKASGYTFTSYYMHWVRQAPGQGLEWMGWMNPNSGNTGYAQKFQGRVTMTRDTSTSTVYMELSSLRSEDTAVYYCARDLGYYDSSGYFGAFDIWGQGTTVTVSSGGGGSGGGGSGGGGSGGGGSDIQMTQSPSSLSASVGDRVTITCQSSEDISSSLNWYQQKPGKAPKLLIYAASSLQIGVPSRFSGSGSGTDFTLTISSLQPEDFATYYCQQTYSTPYTFGQGTKVEIK
binds
3) MAdCAM Antibody Table 1 Clone 17 (scFv) scFv: EVQLLESGGGLVQPGGSLRLSCAASGFTFSDSAMHWVRQAPGKGLEWVSAISGSGSTIYYADSVKGRFTISRDNSKNTLYLQMNSLRAEDTAVYYCVSDIAVAGHWYFDLWGRGTLVTVSSGGGGSGGGGSGGGGSGGGGSDIQMTQSPSSLSASVGDRVTITCRASQSISTFLNWYQQKPGKAPKLLIYAASRLEGGVPSRFSGSGSGTDFTLTISSLQPEDFATYYCQQANSFPLTFGPGTKVDIK
binds
